Test system: laboratory-adapted HIV-1 IIIB strain
measurement parameters: read-out: MT-2 Cells IC50 (μM ± SD); multi-cycle assay, MT-2 cells, HIV-1 IIIB
readout type: IC50 (µM)
Write the answer as a number in µM, unit excluded.

[Q] API: value(readout= IC50, system= laboratory-adapted HIV-1 IIIB strain, query= Cc1nc(C(NC(=O)C(=O)Nc2ccc(Cl)cc2)C2CCNCC2)sc1CO (centres unmarked) [Compound 8] )
[A] 29.8

[Q] Please give the result for Cc1nc(C(NC(=O)C(=O)Nc2ccc(F)c(F)c2)C2CCCCN2)sc1CCO.Cl.Cl (centres unmarked) [Compound 33] too.
[A] 24.1

[Q] Please give the result for Cc1nc(C(NC(=O)C(=O)Nc2ccc(F)c(F)c2)C2CCCCN2)sc1CO.Cl (centres unmarked) [Compound 22] too.
[A] 14

[Q] Please give the result for Cc1nc(C(NC(=O)C(=O)Nc2ccc(Cl)cc2)C2CCCNC2)sc1CO (centres unmarked) [Compound 7] too.
[A] 12

[Q] Please give the result for Cc1nc(C(NC(=O)C(=O)Nc2ccc(C(F)(F)F)cc2)C2CCCCN2)sc1CO.Cl.Cl (centres unmarked) [Compound 20] too.
[A] 4.6

[Q] Please give the result for CC(=O)c1ccc(NC(=O)C(=O)NC(c2nc(C)c(CCO)s2)C2CCCCN2)cc1 (centres unmarked) [Compound 34] too.
[A] 24.5

====

Can you tell me CC50 for the items I'm about to list?
Test system: MT-2 cells
method: Cytotoxicity in MT-2 cells (XTT)
Assay type: cell-based
measurement parameters: MT-2 cells, XTT, four days; read-out: MT-2 Cells CC50

[Q] # CC50 lookup, item Cc1ccc(NC(=O)C(=O)NC(c2nc(C)c(CCO)s2)C2CCCCN2)c(F)c1 (centres unmarked)
[A] > 78.8 µM

[Q] Please give the result for CCn1cc(NC(=O)C(=O)Nc2ccc(Cl)cc2)cn1 too.
[A] 10.7 µM

[Q] Please give the result for Cc1nc(C(NC(=O)C(=O)Nc2ccc(F)cc2F)C2CCCCN2)sc1CO (centres unmarked) too.
[A] > 110 µM

[Q] Please give the result for Cc1nc(C(NC(=O)C(=O)Nc2ccc(C(F)(F)F)cc2)C2CCCCN2)sc1CO.Cl.Cl (centres unmarked) too.
[A] > 75.5 µM

[Q] Please give the result for Cc1nc(C(NC(=O)C(=O)NC2CCCCCC2)C2CCCCN2)sc1CO (centres unmarked) too.
[A] > 90 µM

[Q] Please give the result for Cc1ccc(NC(=O)C(=O)NC(c2nc(C)c(CCO)s2)C2CCCCN2)cc1F.Cl (centres unmarked) too.
[A] ~85 µM

[Q] Please give the result for CC1(C)CC(NC(=O)C(=O)Nc2ccc(Cl)cc2)CC(C)(C)N1 [NBD-556, reference compound] too.
[A] 280 µM

[Q] Please give the result for Cc1nc(C(NC(=O)C(=O)Nc2ccc(C(F)(F)F)cc2)C2CCCCN2)sc1CCO.Cl.Cl (centres unmarked) too.
[A] > 39 µM

====

Test system: TZM-bl cells
method: Cytotoxicity in TZM-bl cells (XTT)
Type: cell-based
measurement parameters: at the dose given as CC50 bound
readout type: % toxicity at that dose (number in parenthesis), TZM-bl cells (%)
Write the answer as a number in %, unit excluded.

[Q] # % toxicity at that dose (number in parenthesis), TZM-bl cells lookup, item CC(=O)N1CCCCC1C(NC(=O)C(=O)Nc1ccc(Cl)cc1)c1nc(C)c(CCO)s1 (stereo not shown)
[A] 20

[Q] Please give the result for Cc1ccc(NC(=O)C(=O)NC(c2nc(C)c(CO)s2)C2CCCCN2)cc1F.Cl (stereo not shown) too.
[A] 0

[Q] Please give the result for Cc1ccc(NC(=O)C(=O)NC(c2nc(C)c(CCO)s2)C2CCCCN2)cc1F.Cl (stereo not shown) too.
[A] 40

[Q] Please give the result for Cc1nc(C(NC(=O)C(=O)Nc2ccc(F)c(F)c2)C2CCCCN2)sc1CO.Cl (stereo not shown) too.
[A] 0

[Q] Please give the result for Cc1nc(C(NC(=O)CCC(=O)Nc2ccc(Cl)cc2)C2CCCCN2)sc1CO.Cl (stereo not shown) too.
[A] 0

[Q] Please give the result for Cc1nc(C(NC(=O)C(=O)Nc2ccc(C(F)(F)F)cc2)C2CCCCN2)sc1CCO.Cl.Cl (stereo not shown) too.
[A] 35

[Q] Please give the result for CC1(C)CC(NC(=O)C(=O)Nc2ccc(Cl)cc2)CC(C)(C)N1 [NBD-556, reference compound] too.
[A] 10

[Q] Please give the result for Cc1nc(C(NC(=O)C(=O)Nc2ccc(C(F)(F)F)cc2)C2CCCCN2)sc1CO.Cl.Cl (stereo not shown) too.
[A] 10

[Q] Please give the result for Cc1nc(C(NC(=O)C(=O)Nc2ccc(F)cc2)C2CCCCN2)sc1CO.Cl (stereo not shown) too.
[A] 0

[Q] Please give the result for Cc1nc(C(NC(=O)C(=O)Nc2ccc(F)c(F)c2)C2CCCCN2)sc1CCO.Cl.Cl (stereo not shown) too.
[A] 10
